Just for reference, ChEMBL document CHEMBL3507680 is where these values come from.

# Run Description: Human HepG2 cell viability assay in 384 well format
# Assay type: toxicity, cell-based
# Design: dose 125 nL, time 70.5 hour; concentration not given beside the values
# Condition Details: HepG2 cells, read-out: Inhibition
cytotoxicity at 70.5 h by entry:

[
  {
    "Compound": "CC(CC(=O)Nc1ccc(C(=O)N(C)C)c(Cl)c1)n1cccc1 (centres undefined)",
    "Unit Annotation": "%",
    "cytotoxicity at 70.5 h": 7.79
  },
  {
    "Compound": "Cc1cc(C2CCC2)nc(N2CCC3(CCCN(C)C3=O)C2)n1 (centres undefined)",
    "Unit Annotation": "%",
    "cytotoxicity at 70.5 h": -10.6
  },
  {
    "Compound": "Cc1cccc(CN2CC3(CCN(Cc4ccco4)CC3)OCC2=O)n1",
    "Unit Annotation": "%",
    "cytotoxicity at 70.5 h": -3.31
  },
  {
    "Compound": "O=C1NCCCc2[nH]c(-c3nc(C4CCCCC4)no3)nc21",
    "Unit Annotation": "%",
    "cytotoxicity at 70.5 h": 8.47
  },
  {
    "Compound": "Cn1c(NC(=O)CNC(=O)C2CCCC2)nc2cc(Cl)ccc21",
    "Unit Annotation": "%",
    "cytotoxicity at 70.5 h": -9.81
  },
  {
    "Compound": "CC(C)Oc1cccc(CN(C)C(=O)Cc2ccon2)c1",
    "Unit Annotation": "%",
    "cytotoxicity at 70.5 h": 4.02
  },
  {
    "Compound": "COC(=O)NCC(=O)NCC(C)(C)c1cccc(C(F)(F)F)c1",
    "Unit Annotation": "%",
    "cytotoxicity at 70.5 h": -1.23
  },
  {
    "Compound": "COc1cc(CNC(=O)Nc2nnc(C3CC3)s2)ccc1O",
    "Unit Annotation": "%",
    "cytotoxicity at 70.5 h": -8.51
  },
  {
    "Compound": "OC1CCN(C2CCN(c3ccc(Cn4ccnc4)cn3)CC2)CC1",
    "Unit Annotation": "%",
    "cytotoxicity at 70.5 h": -17.9
  },
  {
    "Compound": "CC(C)Cc1ncc2c(n1)CN(c1nccc(NC(C)C)n1)C2",
    "Unit Annotation": "%",
    "cytotoxicity at 70.5 h": 2.52
  },
  {
    "Compound": "COCc1ccccc1C(=O)N(C)Cc1ncc(C)c(OC)c1C",
    "Unit Annotation": "%",
    "cytotoxicity at 70.5 h": 19.4
  },
  {
    "Compound": "Cc1ccc(C(=O)Nc2ccn(CCC(N)=O)n2)cc1",
    "Unit Annotation": "%",
    "cytotoxicity at 70.5 h": -3.18
  },
  {
    "Compound": "Cc1cccc(OCC(O)CN2CCN(c3nccs3)CC2)c1 (centres undefined)",
    "Unit Annotation": "%",
    "cytotoxicity at 70.5 h": -3.61
  },
  {
    "Compound": "CC(Cn1cccn1)NCc1cccc(C#N)c1 (centres undefined)",
    "Unit Annotation": "%",
    "cytotoxicity at 70.5 h": -3.1
  },
  {
    "Compound": "O=S(=O)(c1ccccc1F)N1CCC(Oc2cccnn2)CC1",
    "Unit Annotation": "%",
    "cytotoxicity at 70.5 h": -7.73
  },
  {
    "Compound": "Cc1csc2c(C3CCN(CCCOc4ccccc4)CC3)nc(C)n12",
    "Unit Annotation": "%",
    "cytotoxicity at 70.5 h": -0.478
  },
  {
    "Compound": "Cc1nc(NC(=O)NCc2cccnc2NCCN(C)C)sc1C",
    "Unit Annotation": "%",
    "cytotoxicity at 70.5 h": -2.85
  },
  {
    "Compound": "O=C1CCC(c2ccc(Cl)cc2)=NN1CN1CCSCC1",
    "Unit Annotation": "%",
    "cytotoxicity at 70.5 h": -15.1
  },
  {
    "Compound": "Cc1ncc(CN(C)C2CCCN(Cc3noc(C4CC4)n3)C2)s1 (centres undefined)",
    "Unit Annotation": "%",
    "cytotoxicity at 70.5 h": -12.3
  },
  {
    "Compound": "CCc1ccc2nc(C)cc(C(=O)N3C[C@H]4CCC[C@@]4(CO)C3)c2c1",
    "Unit Annotation": "%",
    "cytotoxicity at 70.5 h": -8.92
  },
  {
    "Compound": "Cc1c[nH]c(C2CCCN(Cc3ccccc3C(=O)O)C2)n1 (centres undefined)",
    "Unit Annotation": "%",
    "cytotoxicity at 70.5 h": 18.7
  },
  {
    "Compound": "CC(C)c1nnc(NC(=O)C2CSCN2C(=O)C2CCC2)s1 (centres undefined)",
    "Unit Annotation": "%",
    "cytotoxicity at 70.5 h": -8.18
  },
  {
    "Compound": "CN(C(=O)COC1CCCC1)C1CCN(CC2CCOC2)CC1 (centres undefined)",
    "Unit Annotation": "%",
    "cytotoxicity at 70.5 h": -11.5
  },
  {
    "Compound": "CC(C)COCC1CN(C(=O)c2cscn2)Cc2ncn(C)c21 (centres undefined)",
    "Unit Annotation": "%",
    "cytotoxicity at 70.5 h": -6.45
  }
]
